# test.system: HLA-A*02:01;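 note: lysates heated 10 min at 37–73 °C, complexes pulled down with pan-HLA I antibody, peptide signal by DIA-MS relative to 37 °C, Tm where half the complex is unfolded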
# experiment.notes: thermal melting temperature (Tm) of peptide-HLA complex; higher = more thermostable pHLA complex
# experimental.parameters: C1R-A*02:01
The full ranking holds about 1,100 sequences; the median of “thermal melting temperature (Tm) of peptide-HLA complex” is about 58, and the lowest 2% start at about 42. This is one part of a sample in which the lowest values are shown more often than they occur.
# key: entry, value: thermal melting temperature
State just the number; it will be interpreted in °C.

The examples below pair each entry with its known result.
KVLGIVVGV	61
FLSSVIQNL	58.3

// recorded thermal melting temperature for `VLADALKSI` : 58.9
